Reference for the values: patent US20260184669A1

Assay: Stability of mRNA-LNPs according to storage temperature and duration
Format: physicochemical
Settings: fLuc mRNA-LNP stored at 25° C., day 1
endpoint: Normalized EE % D-1 (%)
Please state the figure in %; there is no need to write the unit.

Q: For the molecule CCCCCCCCCCCOC(=O)CCCCCN(CCCCCCCC(=O)OC(CCCCCCCC)CCCCCCCC)CC(O)CCCCNC(=O)c1c(O)ccn1C (centres unmarked) , give its measured Normalized EE % D-1 value.
Result: 89.7

Q: For the molecule CCCCCCCCCCCOC(=O)CCCCCN(CCCCCCCC(=O)OC(CCCCCCCC)CCCCCCCC)CC(O)CCCCNC(=O)c1cn(C)cn1 (centres unmarked) , give its measured Normalized EE % D-1 value.
Result: 89.5

Q: For the molecule CCCCCCCCCCCOC(=O)CCCCCN(CCCCCCCC(=O)OC(CCCCCCCC)CCCCCCCC)CC(O)CCCCNC(=O)c1ccc[nH]1 (centres unmarked) , give its measured Normalized EE % D-1 value.
Result: 90.9

Q: For the molecule CCCCCCCCCCCOC(=O)CCCCCN(CCCCCCCC(=O)OC(CCCCCCCC)CCCCCCCC)CC(O)CCCCNC(=O)c1ncc[nH]1 (centres unmarked) , give its measured Normalized EE % D-1 value.
Result: 90.0

Q: For the molecule CCCCCCCCCCCOC(=O)CCCCCN(CCCCCCCC(=O)OC(CCCCCCCC)CCCCCCCC)CC(O)CCCCNC(=O)c1c[nH]c(O)n1 (centres unmarked) , give its measured Normalized EE % D-1 value.
Result: 90.2

Q: For the molecule CCCCCCCCCCCOC(=O)CCCCCN(CCCCCCCC(=O)OC(CCCCCCCC)CCCCCCCC)CC(O)CCCCNC(=O)c1cccn1C (centres unmarked) , give its measured Normalized EE % D-1 value.
Result: 88.0

Q: For the molecule CCCCCCCCCCCOC(=O)CCCCCN(CCCCCCCC(=O)OC(CCCCCCCC)CCCCCCCC)CC(O)CCCCNC(=O)c1cncn1C (centres unmarked) , give its measured Normalized EE % D-1 value.
Result: 89.5

Q: For the molecule CCCCCCCCCCCOC(=O)CCCCCN(CCCCCCCC(=O)OC(CCCCCCCC)CCCCCCCC)CC(O)CCCCNC(=O)c1cnc(O)n1C (centres unmarked) , give its measured Normalized EE % D-1 value.
Result: 92.3

---

Assay: Stability of mRNA-LNPs according to storage temperature and duration
Format: physicochemical
Conditions: fLuc mRNA-LNP stored at 4° C., day 1
endpoint: Size (nm) D-1

Q: For the compound CCCCCCCCCCCOC(=O)CCCCCN(CCCCCCCC(=O)OC(CCCCCCCC)CCCCCCCC)CC(O)CCCCNC(=O)c1ncc[nH]1 (stereo not shown) , give its measured Size (nm) D-1 value.
Result: 112.8 nm

Q: For the compound CCCCCCCCCCCOC(=O)CCCCCN(CCCCCCCC(=O)OC(CCCCCCCC)CCCCCCCC)CC(O)CCCCNC(=O)c1ccn(C)c1 (stereo not shown) , give its measured Size (nm) D-1 value.
Result: 184.7 nm

Q: For the compound CCCCC/C=C\C/C=C\CCCCCCCCC(CCCCCCCC/C=C\C/C=C\CCCCC)OC(=O)CCCN(C)C [MC3, DLin-MC3-DMA, reference compound] , give its measured Size (nm) D-1 value.
Result: 92.8 nm

Q: For the compound CCCCCCCCCCCOC(=O)CCCCCN(CCCCCCCC(=O)OC(CCCCCCCC)CCCCCCCC)CC(O)CCCCNC(=O)c1ccc[nH]1 (stereo not shown) , give its measured Size (nm) D-1 value.
Result: 132.2 nm

---

Test: Size, polydispersity index and surface charge of mRNA-LNP (Malvern Zetasizer Nano ZS90)
Format: physicochemical
Settings: surface charge of mRNA-LNP made with the ionizable lipid at its optimal formulation (Table 2)
Give Zeta (mV) for every item shown.
Please state the figure in mV; there is no need to write the unit.

Q: For the compound CCCCCCCCCCCOC(=O)CCCCCN(CCCCCCCC(=O)OC(CCCCCCCC)CCCCCCCC)CC(O)CCCCNC(=O)c1ccn(C)c1 (centres unmarked) [Compound 19] , give its measured Zeta (mV) value.
Result: −5.68

Q: For the compound CCCCCCCCCCCOC(=O)CCCCCN(CCCCCCCC(=O)OC(CCCCCCCC)CCCCCCCC)CC(O)CCCCNC(=O)c1nccn1C (centres unmarked) [Compound 36] , give its measured Zeta (mV) value.
Result: −3.19

Q: For the compound CCCCCCCCCCCOC(=O)CCCCCN(CCCCCCCC(=O)OC(CCCCCCCC)CCCCCCCC)CC(O)CCCCNC(=O)c1cncn1C (centres unmarked) [Compound 38] , give its measured Zeta (mV) value.
Result: −4.28

Q: For the compound CCCCCCCCCCCOC(=O)CCCCCN(CCCCCCCC(=O)OC(CCCCCCCC)CCCCCCCC)CC(O)CCCCNC(=O)c1cccn1C (centres unmarked) [Compound 18] , give its measured Zeta (mV) value.
Result: −1.04

Q: For the compound CCCCC/C=C\C/C=C\CCCCCCCCC(CCCCCCCC/C=C\C/C=C\CCCCC)OC(=O)CCCN(C)C [MC3, DLin-MC3-DMA, reference compound] , give its measured Zeta (mV) value.
Result: −2.65

Q: For the compound CCCCCCCCCCCOC(=O)CCCCCN(CCCCCCCC(=O)OC(CCCCCCCC)CCCCCCCC)CC(O)CCCCNC(=O)c1c(O)ccn1C (centres unmarked) [Compound 24] , give its measured Zeta (mV) value.
Result: −7.89

Q: For the compound CCCCCCCCCCCOC(=O)CCCCCN(CCCCCCCC(=O)OC(CCCCCCCC)CCCCCCCC)CC(O)CCCCNC(=O)c1cnc(O)n1C (centres unmarked) [Compound 40] , give its measured Zeta (mV) value.
Result: −1.73

Q: For the compound CCCCCCCCCCCOC(=O)CCCCCN(CCO)CCCCCCCC(=O)OC(CCCCCCCC)CCCCCCCC [SM-102, reference compound] , give its measured Zeta (mV) value.
Result: −2.99

Q: For the compound CCCCCCCCCCCOC(=O)CCCCCN(CCCCCCCC(=O)OC(CCCCCCCC)CCCCCCCC)CC(O)CCCCNC(=O)c1c[nH]c(O)n1 (centres unmarked) [Compound 35] , give its measured Zeta (mV) value.
Result: −3.90

Q: For the compound CCCCCCCCCCCOC(=O)CCCCCN(CCCCCCCC(=O)OC(CCCCCCCC)CCCCCCCC)CC(O)CCCCNC(=O)c1cc[nH]c1 (centres unmarked) [Compound 17] , give its measured Zeta (mV) value.
Result: −6.80

Q: For the compound CCCCCCCCCCCOC(=O)CCCCCN(CCCCCCCC(=O)OC(CCCCCCCC)CCCCCCCC)CC(O)CCCCNC(=O)c1cn(C)cn1 (centres unmarked) [Compound 37] , give its measured Zeta (mV) value.
Result: −3.30

---

Give PDI for every item shown.
Assay: Size, polydispersity index and surface charge of mRNA-LNP (Malvern Zetasizer Nano ZS90)
Format: physicochemical
Settings: mRNA-LNP made with the ionizable lipid at its optimal formulation (Table 2)
Please reply with the value in numeric form only.

Q: For the compound CCCCCCCCCCCOC(=O)CCCCCN(CCO)CCCCCCCC(=O)OC(CCCCCCCC)CCCCCCCC [SM-102, reference compound] , give its measured PDI value.
Result: 0.140

Q: For the compound CCCCCCCCCCCOC(=O)CCCCCN(CCCCCCCC(=O)OC(CCCCCCCC)CCCCCCCC)CC(O)CCCCNC(=O)c1cncn1C (stereo not shown) , give its measured PDI value.
Result: 0.132

Q: For the compound CCCCC/C=C\C/C=C\CCCCCCCCC(CCCCCCCC/C=C\C/C=C\CCCCC)OC(=O)CCCN(C)C [MC3, DLin-MC3-DMA, reference compound] , give its measured PDI value.
Result: 0.174

Q: For the compound CCCCCCCCCCCOC(=O)CCCCCN(CCCCCCCC(=O)OC(CCCCCCCC)CCCCCCCC)CC(O)CCCCNC(=O)c1c[nH]c(O)n1 (stereo not shown) , give its measured PDI value.
Result: 0.040

Q: For the compound CCCCCCCCCCCOC(=O)CCCCCN(CCCCCCCC(=O)OC(CCCCCCCC)CCCCCCCC)CC(O)CCCCNC(=O)c1cccn1C (stereo not shown) , give its measured PDI value.
Result: 0.145

Q: For the compound CCCCCCCCCCCOC(=O)CCCCCN(CCCCCCCC(=O)OC(CCCCCCCC)CCCCCCCC)CC(O)CCCCNC(=O)c1cc[nH]c1 (stereo not shown) , give its measured PDI value.
Result: 0.100

Q: For the compound CCCCCCCCCCCOC(=O)CCCCCN(CCCCCCCC(=O)OC(CCCCCCCC)CCCCCCCC)CC(O)CCCCNC(=O)c1ccn(C)c1 (stereo not shown) , give its measured PDI value.
Result: 0.193

Q: For the compound CCCCCCCCCCCOC(=O)CCCCCN(CCCCCCCC(=O)OC(CCCCCCCC)CCCCCCCC)CC(O)CCCCNC(=O)c1c[nH]cn1 (stereo not shown) , give its measured PDI value.
Result: 0.143

Q: For the compound CCCCCCCCCCCOC(=O)CCCCCN(CCCCCCCC(=O)OC(CCCCCCCC)CCCCCCCC)CC(O)CCCCNC(=O)c1ccc[nH]1 (stereo not shown) , give its measured PDI value.
Result: 0.101

Q: For the compound CCCCCCCCCCCOC(=O)CCCCCN(CCCCCCCC(=O)OC(CCCCCCCC)CCCCCCCC)CC(O)CCCCNC(=O)c1cn(C)cn1 (stereo not shown) , give its measured PDI value.
Result: 0.154
